Listing of entries alongside the reported EC50.
# Test system: Human immunodeficiency virus 1
# assay-summary: Antiviral activity against HIV1 NL4-3 harboring M46I/V82F/I84V amino acid substitution in protease encoding region infected in human MT4 cells assessed as inhibition of p24 Gag protein production selected at 5 uM of ritonavir by ELISA
# Format: functional, organism-based
# particulars: Human immunodeficiency virus 1, NL4-3, MT4
recorded-metric: EC50

record-smiles: CC(C)(C)NC(=O)[C@@H]1CN(Cc2cccnc2)CCN1C[C@@H](O)C[C@@H](Cc1ccccc1)C(=O)N[C@H]1c2ccccc2C[C@H]1O.O
reported-value: 300 nM
//
record-smiles: CC(C)c1nc(CN(C)C(=O)N[C@H](C(=O)N[C@@H](Cc2ccccc2)C[C@H](O)[C@H](Cc2ccccc2)NC(=O)OCc2cncs2)C(C)C)cs1
reported-value: > 1000 nM
//
record-smiles: Cc1cccc(C)c1OCC(=O)N[C@@H](Cc1ccccc1)[C@@H](O)C[C@H](Cc1ccccc1)NC(=O)[C@H](C(C)C)N1CCCNC1=O
reported-value: 110 nM
//
record-smiles: CC(C)CN(C[C@@H](O)[C@H](Cc1ccccc1)NC(=O)O[C@H]1CCOC1)S(=O)(=O)c1ccc(N)cc1
reported-value: 430 nM
//
record-smiles: CC(C)(C)NC(=O)[C@@H]1C[C@@H]2CCCC[C@@H]2CN1C[C@@H](O)[C@H](Cc1ccccc1)NC(=O)[C@H](CC(N)=O)NC(=O)c1ccc2ccccc2n1
reported-value: 10 nM
//
record-smiles: COC(=O)N[C@H](C(=O)N[C@@H](Cc1ccccc1)[C@@H](O)CN(Cc1ccc(-c2ccccn2)cc1)NC(=O)[C@@H](NC(=O)OC)C(C)(C)C)C(C)(C)C
reported-value: 21 nM
//
record-smiles: COc1ccc(S(=O)(=O)N(C[C@@H]2CCC(=O)N2)C[C@@H](O)[C@H](Cc2ccccc2)NC(=O)O[C@@H]2C[C@@H]3CCO[C@@H]3C2)cc1
reported-value: 77 nM
//
record-smiles: Cc1c(O)cccc1C(=O)N[C@@H](CSc1ccccc1)[C@H](O)CN1C[C@H]2CCCC[C@H]2C[C@H]1C(=O)NC(C)(C)C
reported-value: 240 nM

###

Listing of entries alongside the reported selectivity ratio.
# assay-summary: Selectivity index, ratio of CC50 for human MT2 cells to EC50 for HIV1 LAI
# Assay type: toxicity, cell-based
# particulars: read-out: Selectivity Index
recorded-metric: selectivity ratio

record-smiles: COc1ccc(S(=O)(=O)N(C[C@@H]2CCC(=O)N2)C[C@@H](O)[C@H](Cc2ccccc2)NC(=O)O[C@@H]2C[C@@H]3CCO[C@@H]3C2)cc1
recorded-metric: selectivity ratio
reported-value: > 3600
--
record-smiles: CC(C)(C)NC(=O)[C@@H]1C[C@@H]2CCCC[C@@H]2CN1C[C@@H](O)[C@H](Cc1ccccc1)NC(=O)[C@H](CC(N)=O)NC(=O)c1ccc2ccccc2n1
recorded-metric: selectivity ratio
reported-value: 710
--
record-smiles: CC(C)CN(C[C@@H](O)[C@H](Cc1ccccc1)NC(=O)O[C@H]1CCOC1)S(=O)(=O)c1ccc(N)cc1
recorded-metric: selectivity ratio
reported-value: > 3000
--
record-smiles: CC(C)(C)NC(=O)[C@@H]1CN(Cc2cccnc2)CCN1C[C@@H](O)C[C@@H](Cc1ccccc1)C(=O)N[C@H]1c2ccccc2C[C@H]1O.O
recorded-metric: selectivity ratio
reported-value: 1600
